Reference source for all entries: patent US20060263427A1

- Measurement notes: clinical
- Run parameters: human, in vivo, 648 mg, Cmax
Structures can show the parent of a compound that is named as a salt.
Readout name: Cmax
The reply should read as a number followed by its unit.

*Q* For C=C[C@H]1C[N@@]2CC[C@H]1C[C@H]2[C@H](O)c1ccnc2ccc(OC)cc12 [Quinine Sulfate] , write its Cmax.
*A* 3240 ng/mL

* * *

- Measurement notes: Mean plasma quinine concentration over 24 hours after single oral dose of Quinine Sulfate (Example 6, Studies 1 and 2)
- Assay type: in vivo, human
- Run parameters: both sexes, human, plasma, oral, 324 mg, Study 2, C: 324 mg capsule, fasting; 6 hours
Counter-ions that a name gives are not always drawn.
Readout name: concentration at 6 h
Answer format: number, then unit.

*Q* Consider the compound C=C[C@H]1C[N@@]2CC[C@H]1C[C@H]2[C@H](O)c1ccnc2ccc(OC)cc12 [Quinine Sulfate] and give its recorded concentration at 6 h.
*A* 1710 ng/mL
